Assay: melting temperature; fluorescence melt of hairpins on a sequencing array, two-state fit, raised by 9.35 °C to match UV melts
Details: sodium 0.088 M

[
  {
    "BIOPOLYMER_SEQUENCE": "GGAACCGAAAGGTCTCC ((((((....))).)))",
    "Tm [°C]": 44.7
  },
  {
    "BIOPOLYMER_SEQUENCE": "GCTCCGCGAAAGCCTAGC (((..((....))..)))",
    "Tm [°C]": 34.7
  },
  {
    "BIOPOLYMER_SEQUENCE": "GATCCTGCAGAGGATC ((((((....))))))",
    "Tm [°C]": 56
  },
  {
    "BIOPOLYMER_SEQUENCE": "GCGATACGAAAGTACGC (((.(((....))))))",
    "Tm [°C]": 55.4
  },
  {
    "BIOPOLYMER_SEQUENCE": "GAGTATGCGAAAGCACTC (((..(((....))))))",
    "Tm [°C]": 38.8
  },
  {
    "BIOPOLYMER_SEQUENCE": "GGCATTGGAAACAATACC ((.((((....)))).))",
    "Tm [°C]": 36.6
  },
  {
    "BIOPOLYMER_SEQUENCE": "GTAAGTCGAAAGACGTAC (((.(((....))).)))",
    "Tm [°C]": 47.1
  },
  {
    "BIOPOLYMER_SEQUENCE": "GTTCGAGGAAACTTGGAC ((.(.((....)).).))",
    "Tm [°C]": 31.2
  },
  {
    "BIOPOLYMER_SEQUENCE": "GACGACACGAAAGTGGTC (((..(((....))))))",
    "Tm [°C]": 41.2
  },
  {
    "BIOPOLYMER_SEQUENCE": "GGTATCACGAAAGTGACC (((..(((....))))))",
    "Tm [°C]": 30
  },
  {
    "BIOPOLYMER_SEQUENCE": "GCTACGGCGAAAGCCAGC (((..(((....))))))",
    "Tm [°C]": 42.9
  },
  {
    "BIOPOLYMER_SEQUENCE": "GCGTACTGACGC ((((....))))",
    "Tm [°C]": 52.4
  }
]
